Attribution: patent US4692443A

# System: Klebsiella X68
# test: standard in vitro agar dilution assay (MIC)
# Type: cell-based
# measurement parameters: Klebsiella, X68, read-out: Agar Dilution MIC
MIC values, listed per item

molecule | MIC, µg/mL
CO/N=C(\C(=O)NC1C(=O)N2C(C(=O)[O-])=C(C[n+]3ccc4[nH]c(-c5cccs5)nc4c3)CSC12)c1csc(N)n1 (stereo not shown) [Example 8] | 0.5
CO/N=C(\C(=O)NC1C(=O)N2C(C(=O)[O-])=C(C[n+]3ccc4[nH]c(-c5ccccc5)nc4c3)CSC12)c1csc(N)n1 (stereo not shown) [Example 9] | 0.5
CO/N=C(\C(=O)NC1C(=O)N2C(C(=O)[O-])=C(C[n+]3ccc4nc(C(C)(C)C)sc4c3)CSC12)c1csc(N)n1 (stereo not shown) [Example 17] | 0.5
CC(C)(O/N=C(\C(=O)NC1C(=O)N2C(C(=O)[O-])=C(C[n+]3ccc4[nH]cnc4c3)CSC12)c1csc(N)n1)C(=O)O (stereo not shown) [Example 1] | 0.125

###

Listed here: items and their measured MIC.
# Test system: Staph. aureus S13E
# test: microbe, parasite or virus in culture
# Type: cell-based
# measurement parameters: Staphylococcus aureus, read-out: Agar Dilution MIC
reported endpoint: MIC

molecule | tgt | reported endpoint | experimental value
CO/N=C(\C(=O)NC1C(=O)N2C(C(=O)[O-])=C(C[n+]3ccc4nc(C)sc4c3)CSC12)c1csc(N)n1 (stereo not shown) [Example 16] | Staph. aureus S13E | MIC | 4 µg/mL
CO/N=C(\C(=O)NC1C(=O)N2C(C(=O)[O-])=C(C[n+]3ccc4sc(C)nc4c3)CSC12)c1csc(N)n1 (stereo not shown) [Example 13] | Staph. aureus S13E | MIC | 8 µg/mL
CO/N=C(\C(=O)N[C@@H]1C(=O)N2C(C(=O)[O-])=C(C[n+]3cccc4nc(N)sc43)CS[C@H]12)c1csc(N)n1 [Example 15] | Staph. aureus S13E | MIC | 4 µg/mL
CC(C)(O/N=C(\C(=O)N[C@@H]1C(=O)N2C(C(=O)[O-])=C(C[n+]3ccccc3)CS[C@H]12)c1csc(N)n1)C(=O)O [Ceftazidime, ceftazidime, reference compound] | Staph. aureus S13E | MIC | 32 µg/mL
CO/N=C(\C(=O)NC1C(=O)N2C(C(=O)[O-])=C(C[n+]3ccc4[nH]c(-c5cccs5)nc4c3)CSC12)c1csc(N)n1 (stereo not shown) [Example 8] | Staph. aureus S13E | MIC | 8 µg/mL
CCc1nc2c[n+](CC3=C(C(=O)[O-])N4C(=O)C(NC(=O)/C(=N\OC)c5csc(N)n5)C4SC3)ccc2s1 (stereo not shown) [Example 14] | Staph. aureus S13E | MIC | 4 µg/mL
CO/N=C(\C(=O)NC1C(=O)N2C(C(=O)[O-])=C(C[n+]3ccc4ncn(C)c4c3)CSC12)c1csc(N)n1 (stereo not shown) [Example 3] | Staph. aureus S13E | MIC | 4 µg/mL

###

# System: Staph. aureus V41
# test: standard in vitro agar dilution assay (MIC)
# Type: cell-based
# measurement parameters: Staphylococcus aureus; Staph. aureus strain V41; read-out: Agar Dilution MIC

molecule | MIC
CCc1nc2c[n+](CC3=C(C(=O)[O-])N4C(=O)C(NC(=O)/C(=N\OC)c5csc(N)n5)C4SC3)ccc2s1 (centres unmarked) | 4 µg/mL
CO/N=C(\C(=O)NC1C(=O)N2C(C(=O)[O-])=C(C[n+]3ccc4oc(C)nc4c3)CSC12)c1csc(N)n1 (centres unmarked) | 8 µg/mL
CO/N=C(\C(=O)NC1C(=O)N2C(C(=O)[O-])=C(C[n+]3ccc4nc(C)sc4c3)CSC12)c1csc(N)n1 (centres unmarked) | 4 µg/mL
CO/N=C(\C(=O)NC1C(=O)N2C(C(=O)[O-])=C(C[n+]3ccc4c(c3)ncn4C)CSC12)c1csc(N)n1 (centres unmarked) | 8 µg/mL
CO/N=C(\C(=O)NC1C(=O)N2C(C(=O)[O-])=C(C[n+]3ccc4c(c3)nc(C)n4C)CSC12)c1csc(N)n1 (centres unmarked) | 16 µg/mL
CO/N=C(\C(=O)NC1C(=O)N2C(C(=O)[O-])=C(C[n+]3ccc4[nH]c(-c5cccs5)nc4c3)CSC12)c1csc(N)n1 (centres unmarked) | 8 µg/mL
CO/N=C(\C(=O)NC1C(=O)N2C(C(=O)[O-])=C(C[n+]3ccc4scnc4c3)CSC12)c1csc(N)n1 (centres unmarked) | 2 µg/mL
CO/N=C(\C(=O)NC1C(=O)N2C(C(=O)[O-])=C(C[n+]3ccc4nc(C(C)(C)C)sc4c3)CSC12)c1csc(N)n1 (centres unmarked) | 4 µg/mL
